Just for reference, the NIST ThermoML archive (doi:10.1016/j.tca.2011.02.002) is where these values come from.

Catalogue of mass density readings, one per entry.
condition context: 303.15 K; 101 kPa; Liquid; Vibrating tube method
Field: numeric (kg/m3). Do not append units.

Q: Given the molecule Cc1ccncc1 , what is its reported mass density?
Ans: 945.413

====

condition context: 298.15 K; 101 kPa; Liquid; Vibrating tube method
endpoint label: mass density (kg/m3)
Field: numeric (kg/m3). Do not append units.

Look over these answered cases.
# compound, mass density (kg/m3)
rows = [
    ("Cc1cccnc1", 952.002),
    ("c1ccncc1", 978.249),
    ("C1CCOCC1 [tetrahydropyran]", 879.136),
    ("Cc1ccccn1", 939.802),
]

// next item, mass density requested
Q: Given the compound Cc1ccncc1 , what is its reported mass density?
Ans: 950.179

====

Catalogue of speed of sound readings, one per entry.
condition context: 298.15 K; 101 kPa; Liquid
Field: numeric (m/s). Do not append units.

Look over these answered cases.
# compound, value unit, speed of sound
rows = [
    ("c1ccncc1", "m/s", 1417.6),
    ("C1CCOCC1 [tetrahydropyran]", "m/s", 1269.9),
    ("Cc1ccncc1", "m/s", 1431.5),
    ("Cc1ccccn1", "m/s", 1380.1),
]

// next item, speed of sound requested
Q: Given the compound Cc1cccnc1 , what is its reported speed of sound?
Ans: 1424

====

Catalogue of speed of sound readings, one per entry.
condition context: 303.15 K; 101 kPa; Liquid
Field: numeric (m/s). Do not append units.

Look over these answered cases.
# molecule, value unit, speed of sound
rows = [
    ("C1CCOCC1 [tetrahydropyran]", "m/s", 1246.8),
    ("c1ccncc1", "m/s", 1397.4),
]

Q: Given the molecule Cc1ccccn1 , what is its reported speed of sound?
Ans: 1361

Q: Given the molecule Cc1cccnc1 , what is its reported speed of sound?
Ans: 1404

Q: Given the molecule Cc1ccncc1 , what is its reported speed of sound?
Ans: 1410.7

====

condition context: 308.15 K; 101 kPa; Liquid
± gives the expanded uncertainty stated by the source.
endpoint label: speed of sound
Answer with the value and then the unit.

Look over these answered cases.
# molecule, reported measurement
rows = [
    ("Cc1cccnc1", "1384 ± 2 m/s"),
    ("C1CCOCC1 [tetrahydropyran]", "1224.5 ± 2 m/s"),
    ("c1ccncc1", "1377.1 ± 1.1 m/s"),
]

Q: Given the molecule Cc1ccncc1 , what is its reported speed of sound?
Ans: 1389.9 ± 1 m/s

Q: Given the molecule Cc1ccccn1 , what is its reported speed of sound?
Ans: 1339.9 ± 2 m/s

====

condition context: 308.15 K; 101 kPa; Liquid; Vibrating tube method
Binary call on mass density with cut-off 900 kg/m3: strictly below means Criterion met, and equality or higher means Criterion not met.

# compound, assigned class
records = [
    ("c1ccncc1", "Criterion not met"),
    ("Cc1cccnc1", "Criterion not met"),
    ("Cc1ccncc1", "Criterion not met"),
    ("Cc1ccccn1", "Criterion not met"),
]

# evaluate next
Q: Take the compound C1CCOCC1 [tetrahydropyran] and say whether its mass density is less than 900 kg/m3.
Ans: Criterion met

====

condition context: 303.15 K; 101 kPa; Liquid; Vibrating tube method
Catalogue of mass density readings, one per entry.
Field: numeric (kg/m3). Do not append units.

# compound, value unit, mass density
data = [
    ("c1ccncc1 [pyridine]", "kg/m3", 973.224),
    ("Cc1ccccn1 [2-methylpyridine]", "kg/m3", 935.117),
    ("Cc1cccnc1 [3-methylpyridine]", "kg/m3", 947.449),
]

Q: Given the compound C1CCOCC1 [tetrahydropyran] , what is its reported mass density?
Ans: 873.992
